tested on: MCF-7; experiment: MTT cytotoxicity test, MCF-7; format: cell-based, human; details: breast cancer cell line, 72 hours
measurement-kind: IC50 MCF-7

GET /values?readout=IC50 MCF-7&item= C[C@@]12CC([C@@]3(O)[C@H](O)C[C@H]4[C@@H]5C[C@H](Cl)[C@]6(O)[C@@H](O)C=CC(=O)[C@]6(C)[C@H]5CC[C@@]43C)[C@@H](C1)OC(=O)[C@]2(C)O (stereo partly drawn) [Compound 22, Anomanolide D]
>20 µg/mL

GET /values?readout=IC50 MCF-7&item= COC1CC(=O)[C@]2(C)[C@H]3CC[C@]4(C)[C@@H]([C@@](C)(O)[C@H]5CC(C)=C(C)C(=O)O5)CC[C@H]4[C@@H]3C[C@H]3O[C@]32[C@H]1O (stereo partly drawn) [Compound 16, iso-Tubocapsanolide G]
>20 µg/mL

GET /values?readout=IC50 MCF-7&item= COC1CC(=O)[C@]2(C)[C@H]3CC[C@@]4(C)[C@@H](CC[C@]4(O)[C@H](C)[C@H]4CC(C)=C(C)C(=O)O4)[C@@H]3C[C@H]3O[C@]32[C@H]1O (stereo partly drawn) [Compound 15, Tubocapsanolide G]
>20 µg/mL
